- testMethodNotes: MEKC lipophilicity (SDS micelles, pH 7.4)
- Assay type: physicochemical
- recordedConditions: 50 mM SDS, HEPES/TRIS buffer pH 7.4, 25 °C
observable: logk

CCn1cc(C(=O)O)c(=O)c2cc(F)c(N3CCNCC3)nc21 [Compound 23, enoxacin, reference compound]
0.156
CCn1cc(C(=O)O)c(=O)c2cc(F)c(N3CC[N+]4(CC3)CN3C(=N4)C(C(=O)O)=Cc4ccccc43)nc21.[Cl-]
−0.239
CCn1cc(C(=O)O)c(=O)c2cc(F)c(N3CC[N+]4(CN5C(=N4)C(C(=O)O)=Cc4ccccc45)C(C)C3)c(F)c21.[Cl-] (stereo not shown)
−0.265
COc1c(N2CCNC(C)C2)c(F)cc2c(=O)c(C(=O)O)cn(C3CC3)c12 (stereo not shown) [Compound 21, reference compound]
0.101
CCn1cc(C(=O)O)c(=O)c2cc(F)c(N3CCNC(C)C3)c(F)c21 (stereo not shown) [Compound 17, reference compound]
0.077

1 = CCn1cc(C(=O)O)c(=O)c2cnc(N3CCNCC3)nc21 [Compound 19, pipemidic acid, reference compound]
2 = CCn1cc(C(=O)O)c(=O)c2cc(F)c(N3CCNCC3)cc21 [Compound 18, reference compound]
Query: I need your help: which of the pair 1 , 2 has higher logk? Give the label under which the chosen entry appears.
Reply: 2

====

- testMethodNotes: RP-TLC lipophilicity, silica gel C18, methanol-water
- Assay type: physicochemical
- recordedConditions: RP-TLC silica gel C18, slope of Soczewiński–Wachtmeister equation
observable: b

CCn1cc(C(=O)O)c(=O)c2cnc(N3CCNCC3)nc21 [Compound 19, pipemidic acid, reference compound]
−1.78

1 = CCn1cc(C(=O)O)c(=O)c2cc(F)c(N3CC[N+]4(CN5C(=N4)C(C(=O)O)=Cc4ccccc45)C(C)C3)c(F)c21.[Cl-] (stereo not drawn)
2 = CCn1cc(C(=O)O)c(=O)c2cc(F)c(N3CC[N+]4(CC3)CN3C(=N4)C(C(=O)O)=Cc4ccccc43)cc21.[Cl-]
Query: I need your help: which of the pair 1 , 2 has higher b? Give the label under which the chosen entry appears.
Reply: 2

====

- testMethodNotes: RP-TLC lipophilicity, silica gel C8, methanol-water
- Type: physicochemical
- recordedConditions: RP-TLC silica gel C8, mean value of RM
observable: mRM

CCn1cc(C(=O)O)c(=O)c2cc(F)c(N3CC[N+]4(CC3)CN3C(C)=CC(C)=C(C(=O)O)C3=N4)cc21.[Cl-]
0.82
CCn1cc(C(=O)O)c(=O)c2cc(F)c(N3CCNCC3)cc21 [Compound 18, reference compound]
1.47
COc1c(N2CC[N+]3(CN4C(=N3)C(C(=O)O)=Cc3ccccc34)C(C)C2)c(F)cc2c(=O)c(C(=O)O)cn(C3CC3)c12.[Cl-] (stereo not drawn)
1.01
CCn1cc(C(=O)O)c(=O)c2cnc(N3CC[N+]4(CC3)CN3C(=N4)C(C(=O)O)=Cc4ccccc43)nc21.[Cl-]
1.04
COc1c(N2CCNC(C)C2)c(F)cc2c(=O)c(C(=O)O)cn(C3CC3)c12 (stereo not drawn) [Compound 21, reference compound]
1.26
CCn1cc(C(=O)O)c(=O)c2cc(F)c(N3CC[N+]4(CC3)CN3C(=N4)C(C(=O)O)=Cc4ccccc43)nc21.[Cl-]
1.05
CCn1cc(C(=O)O)c(=O)c2cnc(N3CCNCC3)nc21 [Compound 19, pipemidic acid, reference compound]
1.30

a = CC1=CC(C)=C(C(=O)O)C2=N[N+]3(CN12)C(C)CN(c1c(F)c(N)c2c(=O)c(C(=O)O)cn(C4CC4)c2c1F)CC3C.[Cl-] (stereo not drawn)
b = CCn1cc(C(=O)O)c(=O)c2cc(F)c(N3CCNCC3)nc21 [Compound 23, enoxacin, reference compound]
Query: I need your help: which of the pair a , b has higher mRM? Give the label under which the chosen entry appears.
Reply: b

====

- testMethodNotes: RP-TLC lipophilicity, silica gel C18, methanol-water
- Type: physicochemical
- recordedConditions: RP-TLC silica gel C18, methanol-water 40 to 70% (v/v), intercept of Soczewiński–Wachtmeister equation
observable: R M ^0

P = COc1c(N2CCNC(C)C2)c(F)cc2c(=O)c(C(=O)O)cn(C3CC3)c12 (stereo not drawn) [Compound 21, reference compound]
Q = CCn1cc(C(=O)O)c(=O)c2cnc(N3CC[N+]4(CC3)CN3C(=N4)C(C(=O)O)=Cc4ccccc43)nc21.[Cl-]
Query: I need your help: which of the pair P , Q has higher R M ^0? Give the label under which the chosen entry appears.
Reply: P

====

- testMethodNotes: RP-TLC lipophilicity, silica gel C8, methanol-water
- Format: physicochemical
- recordedConditions: RP-TLC silica gel C8, first principal component of RM values, contains 83.57% of information
observable: PC1

These solved cases illustrate the format of a correct answer.
CC1=CC(C)=C(C(=O)O)C2=N[N+]3(CN12)C(C)CN(c1c(F)c(N)c2c(=O)c(C(=O)O)cn(C4CC4)c2c1F)CC3C.[Cl-] (stereo not shown) [Compound 14]
−1.79
CC1CN(c2c(F)c(N)c3c(=O)c(C(=O)O)cn(C4CC4)c3c2F)CC(C)[N+]12CN1C(=N2)C(C(=O)O)=Cc2ccccc21.[Cl-] (stereo not shown) [Compound 3]
−3.48
CCn1cc(C(=O)O)c(=O)c2cc(F)c(N3CCNCC3)cc21 [Compound 18, reference compound]
−5.56
COc1c(N2CCNC(C)C2)c(F)cc2c(=O)c(C(=O)O)cn(C3CC3)c12 (stereo not shown) [Compound 21, reference compound]
−4.29
O=C(O)c1cn(C2CC2)c2cc(N3CCNCC3)c(F)cc2c1=O [Compound 22, ciprofloxacin, reference compound]
−5.04

a = COc1c(N2CC3CCC[N+]4(CN5C(=N4)C(C(=O)O)=Cc4ccccc45)C3C2)c(F)cc2c(=O)c(C(=O)O)cn(C3CC3)c12.[Cl-] (stereo not shown) [Compound 15]
b = O=C(O)C1=Cc2ccccc2N2C[N+]3(CCN(c4cc5c(cc4F)c(=O)c(C(=O)O)cn5C4CC4)CC3)N=C12.[Cl-] [Compound 8]
c = CCn1cc(C(=O)O)c(=O)c2cc(F)c(N3CCNCC3)nc21 [Compound 23, enoxacin, reference compound]
d = CC1=CC(C)=C(C(=O)O)C2=N[N+]3(CCN(c4cc5c(cc4F)c(=O)c(C(=O)O)cn5C4CC4)CC3)CN12.[Cl-] [Compound 4]
Query: Arrange by PC1, high to low. Answer format: the labels, ordered as requested.
Reply: d, b, a, c

====

- testMethodNotes: MEKC lipophilicity (SDS micelles, pH 7.4)
- Format: physicochemical
- recordedConditions: 50 mM SDS, HEPES/TRIS buffer pH 7.4, 25 °C
observable: logk

CC1=CC(C)=C(C(=O)O)C2=N[N+]3(CN12)C(C)CN(c1c(F)c(N)c2c(=O)c(C(=O)O)cn(C4CC4)c2c1F)CC3C.[Cl-] (stereo not drawn) [Compound 14]
−0.261
O=C(O)C1=Cc2ccccc2N2C[N+]3(CCN(c4cc5c(cc4F)c(=O)c(C(=O)O)cn5C4CC4)CC3)N=C12.[Cl-] [Compound 8]
−0.153
COc1c(N2CC[N+]3(CN4C(C)=CC(C)=C(C(=O)O)C4=N3)C(C)C2)c(F)cc2c(=O)c(C(=O)O)cn(C3CC3)c12.[Cl-] (stereo not drawn) [Compound 13]
−0.408
CCn1cc(C(=O)O)c(=O)c2cc(F)c(N3CC[N+]4(CC3)CN3C(C)=CC(C)=C(C(=O)O)C3=N4)nc21.[Cl-] [Compound 11]
−0.398

1 = CCn1cc(C(=O)O)c(=O)c2cc(F)c(N3CC[N+]4(CN5C(C)=CC(C)=C(C(=O)O)C5=N4)C(C)C3)c(F)c21.[Cl-] (stereo not drawn) [Compound 9]
2 = CC1CN(c2c(F)c(N)c3c(=O)c(C(=O)O)cn(C4CC4)c3c2F)CC(C)[N+]12CN1C(=N2)C(C(=O)O)=Cc2ccccc21.[Cl-] (stereo not drawn) [Compound 3]
Query: Between 1 and 2 , which one has the lower reported logk value? Give the label under which the chosen entry appears.
Reply: 1

====

- testMethodNotes: RP-TLC lipophilicity, silica gel C8, methanol-water
- Assay type: physicochemical
- recordedConditions: RP-TLC silica gel C8, methanol-water 30 to 70% (v/v), intercept of Soczewiński–Wachtmeister equation
observable: R M ^0

O=C(O)c1cn(C2CC2)c2cc(N3CCNCC3)c(F)cc2c1=O [Compound 22, ciprofloxacin, reference compound]
2.04
CC1=CC(C)=C(C(=O)O)C2=N[N+]3(CN12)C(C)CN(c1c(F)c(N)c2c(=O)c(C(=O)O)cn(C4CC4)c2c1F)CC3C.[Cl-] (stereo not drawn)
2.29
CCn1cc(C(=O)O)c(=O)c2cc(F)c(N3CC[N+]4(CN5C(=N4)C(C(=O)O)=Cc4ccccc45)C(C)C3)c(F)c21.[Cl-] (stereo not drawn)
1.90
